The origin of these recorded values is paper PMC9502271.

Tested on: BV2 microglial cells
TEST_METHOD_NOTES: CCK8 cytotoxic activity in BV2 microglial cells
Type: cell-based
MEASUREMENT_PARAMETERS: CCK8, LPS 1 μg/mL 24 h, compound test concentrations 3.125 to 100 μM, read-out: IC50 Cell Viability
pIC50: −log10 of the molar value.
PROPERTY_MEASURED: pIC50

Exercise: Supply reported pIC50 belonging to this molecule: O=C(C=Cc1ccc(O)cc1)OC1CC2(O)CC(OC2=O)C1O (stereo not shown) [Compound 8, 3-O-(Z)-p-coumaroylquinide]
Key: < 4.00
